// provenance: patent US11530244B2

# target_of_assay: PCSK9 (Homo sapiens (Human), UniProt Q8NBP7)
# Sequence (Q8NBP7 153-692): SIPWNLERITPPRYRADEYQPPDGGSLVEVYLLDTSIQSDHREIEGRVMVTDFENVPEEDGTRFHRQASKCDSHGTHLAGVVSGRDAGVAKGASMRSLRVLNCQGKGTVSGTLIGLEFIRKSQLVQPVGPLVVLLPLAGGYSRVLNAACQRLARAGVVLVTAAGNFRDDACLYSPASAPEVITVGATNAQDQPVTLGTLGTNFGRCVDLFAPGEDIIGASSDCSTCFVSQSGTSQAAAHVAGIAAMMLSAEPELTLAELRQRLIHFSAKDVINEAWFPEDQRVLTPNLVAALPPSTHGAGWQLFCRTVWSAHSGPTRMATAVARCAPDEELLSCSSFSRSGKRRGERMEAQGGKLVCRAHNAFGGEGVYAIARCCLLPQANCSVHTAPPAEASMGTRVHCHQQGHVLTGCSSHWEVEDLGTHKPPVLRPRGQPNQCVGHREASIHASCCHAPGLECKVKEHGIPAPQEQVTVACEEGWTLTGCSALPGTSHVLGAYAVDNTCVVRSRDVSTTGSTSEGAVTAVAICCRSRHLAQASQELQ
# experiment: PCSK9 Alexa FRET Standard assay (displacement of AlexaFluor647 tagged cyclic peptide Reagent A)
# Format: binding
# experimental_setup: PCSK9 Alexa FRET Standard assay, 0.5 nM PCSK9, 20 nM AF cyclic peptide Reagent A; read-out: IC50
pIC50: −log10 of the molar value. Starred links: 1 amine or outer side, 2 acyl side, 3 side chain; linkers in the order of their positions; H or OH if unused. Positions of bridges follow the written chain, without caps; N, C: chain ends. Non-standard residues stand in square brackets, D forms with d. Residues, ends and D or L forms follow the SMILES beside them. Trp(5-F) = N[C@@H](Cc1c[nH]c2ccc(F)cc12)C(=O)O; Asp(3,3-Me2) = CC(C)(C(=O)O)[C@H](N)C(=O)O; mXylylene = c1cc(C[*:1])cc(C[*:2])c1; αMeP = C[C@@]1(C(=O)O)CCCN1; Mpa = O=C(O)CCS
experimental_readout: pIC50

1. C[C@H]1NC(=O)[C@H](CCCCN)NC(=O)CCSCc2cccc(c2)CSC[C@@H](C(N)=O)NC(=O)[C@]2(C)CCCN2C(=O)[C@H](Cc2ccc(O)cc2)NC(=O)[C@H](Cc2cnc[nH]2)NC(=O)[C@H](C(C)(C)C(=O)O)NC(=O)[C@H](Cc2c[nH]c3ccc(F)cc23)NC(=O)[C@H](Cc2c[nH]c3ccc(F)cc23)NC1=O [Compound 361] ([Mpa]K[dA][Trp(5-F)][Trp(5-F)][Asp(3,3-Me2)]HY[αMeP]C-NH2; linker 1-10 via mXylylene)    6.00 to 7.00

----------
# target_of_assay: UniProt Q8NBP7
# experiment: PCSK9 Alexa FRET Standard assay (displacement of AlexaFluor647 tagged cyclic peptide Reagent A)
# Format: binding
# experimental_setup: PCSK9 Alexa FRET Standard assay, 0.5 nM PCSK9, 20 nM AF cyclic peptide Reagent A; read-out: IC50
pIC50: −log10 of the molar value. Starred links: 1 amine or outer side, 2 acyl side, 3 side chain; linkers in the order of their positions; H or OH if unused. Positions of bridges follow the written chain, without caps; N, C: chain ends. Non-standard residues stand in square brackets, D forms with d. Residues, ends and D or L forms follow the SMILES beside them. Pro(cis-4-OPh) = O=C(O)[C@@H]1C[C@H](Oc2ccccc2)CN1; X32 = O=C(CCc1cccc2c1oc1c(CCN[*:1])cccc12)[*:2]; Trp(5-F) = N[C@@H](Cc1c[nH]c2ccc(F)cc12)C(=O)O; mXylylene = c1cc(C[*:1])cc(C[*:2])c1; X15 = Brc1cc(C[*:1])cc(C[*:2])c1; Cha = N[C@@H](CC1CCCCC1)C(=O)O; aThr = C[C@H](O)[C@H](N)C(=O)O; αMeP = C[C@@]1(C(=O)O)CCCN1; dOrn = NCCC[C@@H](N)C(=O)O; Dab = NCC[C@H](N)C(=O)O; X2 = O=C(C[*:2])[*:1]; Mpa = O=C(O)CCS
experimental_readout: pIC50

1. C[C@@]12CCCN1C(=O)[C@H](Cc1ccc(O)cc1)NC(=O)[C@H](Cc1cnc[nH]1)NC(=O)[C@H](CC(=O)O)NC(=O)[C@H](Cc1c[nH]c3ccc(F)cc13)NC(=O)[C@H](Cc1c[nH]c3ccc(F)cc13)NC(=O)CNC(=O)[C@@H](CCCN)NC(=O)CCSCc1cccc(c1)CSC[C@@H](C(N)=O)NC2=O [Compound 356] ([Mpa][dOrn]G[Trp(5-F)][Trp(5-F)]DHY[αMeP]C-NH2; linker 1-10 via mXylylene)    4.30 to 4.68
2. C[C@@]12CCCN1C(=O)[C@H](Cc1ccc(O)cc1)NC(=O)CCc1cccc3c1Oc1c(cccc1-3)CCNC(=O)[C@H](Cc1c[nH]c3ccc(F)cc13)NC(=O)[C@H](Cc1c[nH]c3ccc(F)cc13)NC(=O)CNC(=O)[C@H](CCCCN)NC(=O)CCSCc1cccc(c1)CSC[C@H](C(N)=O)NC2=O [Compound 120] ([Mpa]KG[Trp(5-F)][Trp(5-F)][X32]Y[αMeP][dC]-NH2; linker 1-9 via mXylylene)    4.92 to 6.00
3. COc1ccc(C[C@@H]2NC(=O)[C@@H]3CC/C=C/CC[C@H](NC(=O)[C@H](Cc4c[nH]c5ccc(F)cc45)NC(=O)[C@H](Cc4c[nH]c5ccc(F)cc45)NC(=O)[C@@H](C)NC(=O)[C@H](CCCCN)NC(=O)CCSCc4cccc(c4)CSCCNC(=O)[C@]4(C)CCCN4C2=O)C(=O)N3)cc1    4.92 to 6.00
4. CO[C@@H](C)[C@@H]1NC(=O)[C@@H]2CCCN2C(=O)[C@H](Cc2c[nH]c3ccc(F)cc23)NC(=O)[C@H](Cc2c[nH]c3ccc(F)cc23)NC(=O)[C@@H](C)NC(=O)[C@H](CCCCN)NC(=O)CCSCc2cccc(c2)CSC[C@@H](C(N)=O)NC(=O)[C@]2(C)CCCN2C(=O)[C@H](Cc2ccc(O)cc2)NC1=O [Compound 053] ([Mpa]K[dA][Trp(5-F)][Trp(5-F)]P[aThr](Me)Y[αMeP]C-NH2; linker 1-10 via mXylylene)    4.92 to 6.00
5. CO[C@H](C)[C@@H]1NC(=O)CCSCc2cccc(c2)CSC[C@@H](C(N)=O)NC(=O)[C@]2(C)CCCN2C(=O)[C@H](Cc2ccc(O)cc2)NC(=O)[C@H](Cc2cnc[nH]2)NC(=O)[C@H](CC(=O)O)NC(=O)[C@H](Cc2c[nH]c3ccc(F)cc23)NC(=O)[C@H](Cc2c[nH]c3ccc(F)cc23)NC(=O)CNC1=O [Compound 375] ([Mpa]T(Me)G[Trp(5-F)][Trp(5-F)]DHY[αMeP]C-NH2; linker 1-10 via mXylylene)    4.30 to 4.68
6. CC(=O)N[C@H]1CCNC(=O)COc2ccc(cc2)C[C@@H](C(N)=O)NC(=O)[C@]2(C)CCCN2C(=O)[C@H](Cc2ccc(O)cc2)NC(=O)[C@H](Cc2cnc[nH]2)NC(=O)[C@H](CC(=O)O)NC(=O)[C@H](Cc2c[nH]c3ccc(F)cc23)NC(=O)[C@H](Cc2c[nH]c3ccc(F)cc23)NC(=O)CNC(=O)[C@H](C)NC1=O [Compound 352] (Ac-[Dab]AG[Trp(5-F)][Trp(5-F)]DHY[αMeP]Y-NH2; linker 1-10 via X2)    4.30 to 4.68
7. NCCCC[C@@H]1NC(=O)CCSCc2cccc(c2)CSC[C@@H](C(N)=O)NC(=O)[C@@H]2CCCN2C(=O)[C@H](Cc2ccc(O)cc2)NC(=O)[C@H](Cc2c[nH]cn2)NC(=O)[C@H](CC(=O)O)NC(=O)[C@H](Cc2c[nH]c3ccc(F)cc23)NC(=O)[C@H](CC2CCCCC2)NC(=O)CNC1=O [Compound 223] ([Mpa]KG[Cha][Trp(5-F)]DHYPC-NH2; linker 1-10 via mXylylene)    7.00 to 9.96
8. NCCCC[C@@H]1NC(=O)CCSCc2cccc(c2)CSC[C@@H](C(N)=O)NC(=O)[C@@H]2C[C@H](Oc3ccccc3)CN2C(=O)[C@H](Cc2ccc(O)cc2)NC(=O)[C@H](Cc2cnc[nH]2)NC(=O)[C@H](CC(=O)O)NC(=O)[C@H](Cc2c[nH]c3ccc(F)cc23)NC(=O)[C@H](Cc2c[nH]c3ccc(F)cc23)NC(=O)CNC1=O [Compound 367] ([Mpa]KG[Trp(5-F)][Trp(5-F)]DHY[Pro(cis-4-OPh)]C-NH2; linker 1-10 via mXylylene)    6.00 to 7.00
9. COc1ccc(C[C@@H]2NC(=O)[C@H]([C@@H](C)O)NC(=O)[C@@H]3CCCN3C(=O)[C@H](Cc3c[nH]c4ccc(F)cc34)NC(=O)[C@H](Cc3c[nH]c4ccc(F)cc34)NC(=O)[C@@H](C)NC(=O)[C@H](CCCCN)NC(=O)CCSCc3cc(Br)cc(c3)CSC[C@@H](C(N)=O)NC(=O)[C@]3(C)CCCN3C2=O)cc1 [Compound 061] ([Mpa]K[dA][Trp(5-F)][Trp(5-F)]PTY(Me)[αMeP]C-NH2; linker 1-10 via X15)    4.30 to 4.68
10. C[C@@]12CCCN1C(=O)[C@H](Cc1ccc(O)cc1)NC(=O)N[C@H]1CCCc3ccc(cc31)C(=O)[C@H](Cc1c[nH]c3ccc(F)cc13)NC(=O)[C@H](Cc1c[nH]c3ccc(F)cc13)NC(=O)CNC(=O)[C@H](CCCCN)NC(=O)CCSCc1cccc(c1)CSC[C@@H](C(N)=O)NC2=O    4.92 to 6.00

----------
# target_of_assay: PCSK9 (Homo sapiens (Human))
# experiment: PCSK9 Alexa FRET Standard assay (displacement of AlexaFluor647 tagged cyclic peptide Reagent A)
# Assay type: binding
# experimental_setup: PCSK9 Alexa FRET Standard assay, 0.5 nM PCSK9, 20 nM AF cyclic peptide Reagent A; read-out: IC50
Starred links: 1 amine or outer side, 2 acyl side, 3 side chain; linkers in the order of their positions; H or OH if unused. Positions of bridges follow the written chain, without caps; N, C: chain ends. Non-standard residues stand in square brackets, D forms with d. Residues, ends and D or L forms follow the SMILES beside them. Pro(cis-4-CF3) = O=C(O)[C@@H]1C[C@H](C(F)(F)F)CN1; X58 = O=C([C@@H]1[C@H](OCC=[*:3])CCN1[*:1])[*:2]; Trp(5-F) = N[C@@H](Cc1c[nH]c2ccc(F)cc12)C(=O)O; X12 = O=C([C@H](CCCCC=[*:3])N[*:1])[*:2]; mXylylene = c1cc(C[*:1])cc(C[*:2])c1; Mpa = O=C(O)CCS
experimental_readout: IC50

1) NCCCC[C@@H]1NC(=O)CCSCc2cccc(c2)CSC[C@@H](C(N)=O)NC(=O)[C@@H]2C[C@H](C(F)(F)F)CN2C(=O)[C@H](Cc2ccc(O)cc2)NC(=O)[C@H](Cc2c[nH]cn2)NC(=O)[C@H](CC(=O)O)NC(=O)[C@H](Cc2c[nH]c3ccc(F)cc23)NC(=O)[C@H](Cc2c[nH]c3ccc(F)cc23)NC(=O)CNC1=O [Compound 296] ([Mpa]KG[Trp(5-F)][Trp(5-F)]DHY[Pro(cis-4-CF3)]C-NH2; linker 1-10 via mXylylene)    0.00011 to 0.1 µM
2) COc1ccc(C[C@@H]2NC(=O)[C@H](Cc3cnc[nH]3)NC(=O)[C@H](CC(=O)O)NC(=O)[C@H](Cc3c[nH]c4ccc(F)cc34)NC(=O)[C@H](Cc3c[nH]c4ccc(F)cc34)NC(=O)[C@@H](C)NC(=O)CCc3cn(nn3)-c3ccc(cc3)C[C@@H](C(N)=O)NC(=O)[C@]3(C)CCCN3C2=O)cc1 [Compound 416]    0.00011 to 0.1 µM
3) CC(=O)N[C@H]1CCCC/C=C/CO[C@@H]2CCN(C(=O)[C@H](Cc3ccc(O)cc3)NC(=O)[C@H](Cc3cnc[nH]3)NC(=O)[C@H](CC(=O)O)NC(=O)[C@H](Cc3c[nH]c4ccc(F)cc34)NC(=O)[C@H](Cc3c[nH]c4ccc(F)cc34)NC(=O)CNC(=O)[C@H](CCCCN)NC1=O)[C@@H]2C(N)=O [Compound 469] (Ac-[X12]KG[Trp(5-F)][Trp(5-F)]DHY[X58]-NH2; staple (E) 1-9)    21 to 50 µM
